Multi-source literature compilation: Ki on Coagulation factor XI (Homo sapiens, UniProt P03951).
I'd appreciate it if you marked entries 1 when Ki is lower than 4 nM and -1 when it is not.

Reference set (2 entries):
[2H]C([2H])([2H])n1ncc2c1-c1ccnc(c1)[C@@H](N1CCC(c3cc(Cl)ccc3C#N)=CC1=O)CCC[C@@H](C)C(=O)N2
1
O=C1CCCC[C@@H](C(=O)N2CCC[C@@]3(C2)OC(=O)Nc2ccc(Cl)cc23)c2nc(c[nH]2)-c2ccc(F)cc2N1 (single isomer, unassigned)
-1

Continue with the compound presented below.
Hello, I'm reviewing records and need to know if Ki of "O=C(Nc1ccc2ncncc2c1)[C@H](Cc1ccccc1)n1cnc(-c2cc(Cl)ccc2-n2cc(Cl)nn2)cc1=O" is below 4 nM. Could you check?
-1
